assay: yeast display, Sf9 membrane polyspecificity reagent, FACS + sequencing; frameworks hold sequencing errors
value-kind: polyreactivity (PSR sort gate)

[
  {
    "biopolymer-sequence": "QVQLVESGGGLVQAGGSLRLSCAASGSTFGYYAMGWYRQAPGKERELVAAINVSGGRTYYADSVKGRFTISRDNAKNTVYLQMNSLKPEDTAVYYCAASLYSYRSPYTFYYWGQGTQVTVSS",
    "polyreactivity (PSR sort gate)": "high polyreactivity"
  },
  {
    "biopolymer-sequence": "QVQLVESWGGLVQAGGSLRLRCAASGRTIDYNAIGWYRQAPRKEREFVADISNGGTTSYADSVKGSFTFSRDNAKNTVYLHMNSLKPEVTAVYYCATLYDWSSFANSYWYFGWEEDYWGQGTQVTVSS",
    "polyreactivity (PSR sort gate)": "low polyreactivity"
  },
  {
    "biopolymer-sequence": "QVQLVESGGGLVQAGGSLRLSCAASGRIFFRNVMGWYRQAPGKERELVATITSGGRTYYADSVKGRFTISRDNAKNTVYLQMNSLKPEDTAVYYCAAKRYLHRREYWGQGTQVTVSS",
    "polyreactivity (PSR sort gate)": "high polyreactivity"
  },
  {
    "biopolymer-sequence": "QVQLVESGGGLVQAGGSLRLSCAASGSTFNPYTMGWPRQAPGKERELVATITRIGGSTYYADSVKGRFTISRDNAKNTVDLQMNSLKPEDNAVYYCAADHYRSVRWRSDYTYRVNYWGQGTQVTVSS",
    "polyreactivity (PSR sort gate)": "high polyreactivity"
  }
]

Please report the recorded polyreactivity (PSR sort gate) for QVQLVESGGGLVQAGGSLRLSCAASGFTFRGNAMGWYRQAPGKERELVAAITSSDDSTYYADSVKGRFTISRDNAKNTVYLQMNSLKPEDTAVYYCAVYFFSFWGQGTQVTVSS .
low polyreactivity
